Kd for assorted binders
Molecular target: T1, LAG-3 extracellular domain with a Flag tag (human, UniProt P18627 23-434)
T1 construct: also called LAG-3-Flag; LAG-3-Flag antigen
T1 sequence: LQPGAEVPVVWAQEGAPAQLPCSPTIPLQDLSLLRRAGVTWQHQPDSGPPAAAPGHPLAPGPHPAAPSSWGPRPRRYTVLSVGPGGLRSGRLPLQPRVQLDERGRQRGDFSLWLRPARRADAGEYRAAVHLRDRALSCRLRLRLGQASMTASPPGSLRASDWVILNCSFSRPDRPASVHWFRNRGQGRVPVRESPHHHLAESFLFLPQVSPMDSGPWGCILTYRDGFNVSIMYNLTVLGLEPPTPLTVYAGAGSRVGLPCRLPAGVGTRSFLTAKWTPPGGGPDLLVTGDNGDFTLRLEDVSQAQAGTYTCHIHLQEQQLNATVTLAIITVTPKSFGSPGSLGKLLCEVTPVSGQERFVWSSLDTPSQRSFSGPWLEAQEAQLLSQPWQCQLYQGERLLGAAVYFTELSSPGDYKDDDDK
Assay: SPR (Biacore), antibody captured on anti-human capture chip, LAG-3-Flag in flow
Report the value in nM with no unit label.

Q: Recorded Kd of Hu229-015 (antibody, human IgG4 S228P, kappa, V domains shown, Humanized mAb229) VH: QVQLVQSGSELKKPGASVKVSCKASGYTFTTSGMSWVKQAPGQGLKWMGWINTYSGVPTYADDFKGRFVFSLDTSVSTAYLQISSLKAEDTATYYCARDNYDARDVYYYAMDYWGQGTTVTVSS VL: DIQMTQSPSSLSASVGDRVTITCRASENIYSNLAWYQQKPGKSPKLLVYAATNLADGVPSRFSGSGSGTQYTLTISSLQPEDFATYYCQHFWITPWTFGGGTKVEIKR , please.
Result: 0.0459

Q: Recorded Kd of Hu229-017 (antibody, human IgG4 S228P, kappa, V domains shown, Humanized mAb229) VH: QVQLVQSGSELKKPGASVKVSCKASGYTFTTSGMSWVKQAPGQGLKWMGWINTYSGVPTYADDFKGRFVFSLDTSVSTAYLQISSLKAEDTATYFCARDNYDARDVYYYAMDYWGQGTTVTVSS VL: DIQMTQSPSSLSASVGDRVTITCRASENIYSNLAWYQQKPGKAPKLLVYAATNLADGVPSRFSGSGSGTDYTLTISSLQPEDFATYYCQHFWITPWTFGGGTKVEIKR , please.
Result: 0.0671

// below: Kd requested for another binder
Q: Recorded Kd of Hu303-005 (antibody, human IgG4 S228P, kappa, V domains shown, also called LAG-3 antibody Hu303-005; LAG3 antibody Hu303-005) VH: QVQLVQSGAEVKKPGASVKVSCKASGYTFTDYYMNWVRQAPGQRLEWMGVINPYNGDTAYNQKFKGRVTITRDTSASTAYMELSSLRSEDTAVYYCARDDGYYDYYFDVWGQGTTVTVSS VL: DIQMTQSPSSLSASVGDRVTITCRASQDIGSRLNWYQQKPGKAPKRLIYATSTLDSGVPSRFSGSRSGTDFTLTISSLQPEDFATYYCLQLASSPPTFGGGTKVEIKR , please.
Result: 0.0715

Every entry's value here was drawn from patent US20220031842A1.
